- measurement_target: HLA-B*44:02 (Homo sapiens, UniProt P01889, A223V/A65T/A93T/A95T/D201E/D98Y/E176V/E187L/E204Q/E69K/G107R/H137Y/K202T/L105A/L119I/N104T/N87E/Q56L/Q94N/R106L/R155S/R180D/S101N/S121R/S35A/S48T/T118I/V36M/W191S/Y140D/Y91S)
- experimental_details: MHC binding assay, UV-ligand exchange with β2m ELISA, HLA-B*44:02
- measurement_conditions: binding to HLA-B*44:02, UV-ligand exchange
assay_metric: Peptide exchange (MHC class I binding score, peptide exchange yield)

Study these solved cases before continuing.
126 (EENKPGIVY; listed as Homo sapiens) [compound 126]	“++” (>20% = ++)
264 (SEDHSGSYW; listed as Homo sapiens) [compound 264]	“+++” (>50 = +++)
122 (KELPGVKKY; listed as Homo sapiens) [compound 122]	“++” (>20% = ++)
156 (FEVESLFQKY; listed as Homo sapiens) [compound 156]	“+++” (>50 = +++)
276 (EEEGNLLRSW; listed as Homo sapiens) [compound 276]	“+++” (>50 = +++)

Reported Peptide exchange (MHC class I binding score, peptide exchange yield) of 267 (KEKFPINGW; listed as Homo sapiens) [compound 267] : “+++” (>50 = +++)

Reported Peptide exchange (MHC class I binding score, peptide exchange yield) of 143 (YEYDLKWEF; listed as Homo sapiens) [compound 143] : “+++” (>50 = +++)

Reported Peptide exchange (MHC class I binding score, peptide exchange yield) of 183 (GESQDSTTAL; listed as Homo sapiens) [compound 183] : “++” (>20% = ++)

---

- measurement_target: HLA-B*44:02 (Homo sapiens, UniProt P01889, A223V/A65T/A93T/A95T/D201E/D98Y/E176V/E187L/E204Q/E69K/G107R/H137Y/K202T/L105A/L119I/N104T/N87E/Q56L/Q94N/R106L/R155S/R180D/S101N/S121R/S35A/S48T/T118I/V36M/W191S/Y140D/Y91S)
- experimental_details: MHC binding assay, UV-ligand exchange with β2m ELISA, HLA-B*44:02
- measurement_conditions: binding to HLA-B*44:02, UV-ligand exchange
assay_metric: Peptide exchange (MHC class I binding score, peptide exchange yield)

Study these solved cases before continuing.
150 (EEVTDRSQL; listed as Homo sapiens) [compound 150]	“++” (>20% = ++)
277 (EEGNLLRSW; listed as Homo sapiens) [compound 277]	“+++” (>50 = +++)
145 (AEPLVGQRW; listed as Homo sapiens) [compound 145]	“+++” (>50 = +++)
263 (REAGFQVKAY; listed as Homo sapiens) [compound 263]	“+++” (>50 = +++)

Reported Peptide exchange (MHC class I binding score, peptide exchange yield) of 182 (AQNLSIIQY; listed as Homo sapiens) [compound 182] : “++” (>20% = ++)

Reported Peptide exchange (MHC class I binding score, peptide exchange yield) of 175 (HEIDGKALFL; listed as Homo sapiens) [compound 175] : “++” (>20% = ++)

---

- measurement_target: HLA-B*44:02 (Homo sapiens, UniProt P01889, A223V/A65T/A93T/A95T/D201E/D98Y/E176V/E187L/E204Q/E69K/G107R/H137Y/K202T/L105A/L119I/N104T/N87E/Q56L/Q94N/R106L/R155S/R180D/S101N/S121R/S35A/S48T/T118I/V36M/W191S/Y140D/Y91S)
- experimental_details: MHC binding assay, UV-ligand exchange with β2m ELISA, HLA-B*44:02
- measurement_conditions: binding to HLA-B*44:02, UV-ligand exchange
assay_metric: Peptide exchange (MHC class I binding score, peptide exchange yield)

153 (KEFEQVPGHL; listed as Homo sapiens) [compound 153]	“++” (>20% = ++)
148 (REYNEYENI; listed as Homo sapiens) [compound 148]	“++” (>20% = ++)
272 (KEFELRSSW; listed as Homo sapiens) [compound 272]	“+++” (>50 = +++)
161 (EEGDTLLHLF; listed as Homo sapiens) [compound 161]	“+++” (>50 = +++)
